measurement description: Solubility of different salt types in biological vehicle (SGF, FeSSIF, FaSSIF), HPLC
Format: physicochemical
applied conditions: SGF, 37° C., 24 hours, supernatant
Give yes when the value for pH value is at least 2. Give no when it is less.

                                   compound  assigned_category
0  Cc1ccc(S(=O)(=O)O)cc1.Cc1cccc(-c2nn3c(c2-c2ccc4ncnn4c2/C=C/C(N)=O)CCC3)n1                yes

q: Has Cc1cccc(-c2nn3c(c2-c2ccc4ncnn4c2/C=C/C(N)=O)CCC3)n1 [Compound of formula (I)] a recorded pH value greater than or equal to 2?
a: yes

q: Has CS(=O)(=O)O.Cc1cccc(-c2nn3c(c2-c2ccc4ncnn4c2/C=C/C(N)=O)CCC3)n1 a recorded pH value greater than or equal to 2?
a: yes

q: Has Cc1cccc(-c2nn3c(c2-c2ccc4ncnn4c2/C=C/C(N)=O)CCC3)n1 [Sulphate] a recorded pH value greater than or equal to 2?
a: no

* * *

measurement description: Solubility of different salt types in biological vehicle (SGF, FeSSIF, FaSSIF), HPLC
Format: physicochemical
applied conditions: FaSSIF, 37° C., 4 hours
recorded endpoint: State

                                   compound  observed
0  Cc1cccc(-c2nn3c(c2-c2ccc4ncnn4c2/C=C/C(N)=O)CCC3)n1 [Sulphate]   soluble
1  Cc1cccc(-c2nn3c(c2-c2ccc4ncnn4c2/C=C/C(N)=O)CCC3)n1.Cl [Hydrochloride]   soluble
2  CS(=O)(=O)O.Cc1cccc(-c2nn3c(c2-c2ccc4ncnn4c2/C=C/C(N)=O)CCC3)n1   soluble
3  Cc1ccc(S(=O)(=O)O)cc1.Cc1cccc(-c2nn3c(c2-c2ccc4ncnn4c2/C=C/C(N)=O)CCC3)n1 [Compound of formula (II)]     clear

* * *

measurement description: Solubility of different salt types in biological vehicle (SGF, FeSSIF, FaSSIF), HPLC
Format: physicochemical
applied conditions: FaSSIF, 37° C., 4 hours
I'd appreciate it if you marked entries Satisfied when Concentration is lower than 5000 µg/mL and Not satisfied when it is not.

Take a look at these entries with their results.
In [3]: df
Out[3]:
                                   compound  assigned_category
0  Cc1cccc(-c2nn3c(c2-c2ccc4ncnn4c2/C=C/C(N)=O)CCC3)n1 [Compound of formula (I)]          Satisfied
1  Cc1cccc(-c2nn3c(c2-c2ccc4ncnn4c2/C=C/C(N)=O)CCC3)n1.Cl [Hydrochloride]          Satisfied
2  CS(=O)(=O)O.Cc1cccc(-c2nn3c(c2-c2ccc4ncnn4c2/C=C/C(N)=O)CCC3)n1      Not satisfied

# next compound below
q: Please indicate whether the reported Concentration of Cc1ccc(S(=O)(=O)O)cc1.Cc1cccc(-c2nn3c(c2-c2ccc4ncnn4c2/C=C/C(N)=O)CCC3)n1 is strictly below 5000 µg/mL.
a: Not satisfied
